Origin of the recorded values: ChEMBL document CHEMBL2434890

EXPERIMENT_NOTES: Inhibition of TRK in human MCF7 cells after 48 hrs by ELISA
Format: cell-based
QUANTITY_NAME: IC50 (µM)
Numbers only, in µM.

Take each entry in turn and give its IC50.
1. CN(C)c1ccc(/C=N/Nc2nc3ccccc3[nH]c2=O)cc1
2. Oc1nc2ccccc2n2c(O)nnc12
3. CC(C)=NNc1nc2ccccc2[nH]c1=O

Given back:
1. 0.0118
2. 0.03
3. 0.0172

Take each entry in turn and give its IC50.
1. COc1cccc(OC)c1/C=N/Nc1nc2ccccc2[nH]c1=O
2. CCOC(=O)Cn1c(=O)c(N/N=C/c2c(OC)cccc2OC)nc2ccccc21
3. C=CCn1c(=O)c(N/N=C/c2c(OC)cccc2OC)nc2ccccc21
4. O=c1[nH]c2ccccc2n2c(=O)c(O)nnc12

Given back:
[0.00875, 0.0046, 0.00415, 0.0278]

---

Tested on: Raji
EXPERIMENT_NOTES: Inhibition of TPA-induced EBV early antigen activation infected in human Raji cells assessed as antigen activity at 1000 mol ratio/TPA after 48 hrs by immunofluorescence method relative to control
Format: cell-based
Set-up: scale not given: the % may be the effect or the level left
CONDITION_NOTES: human gammaherpesvirus 4
QUANTITY_NAME: Activity

Some compounds with known Activity results, for comparison:
compound=O=c1[nH]c2ccccc2nc1Cl quantity_name=Activity result=16.7%
compound=O=C1Nc2ccccc2N2C(O)=CNN=C12 quantity_name=Activity result=13.2%
compound=Oc1nc2ccccc2n2cnnc12 quantity_name=Activity result=18.6%
compound=COc1cccc(OC)c1/C=N/Nc1nc2ccccc2[nH]c1=O quantity_name=Activity result=16.8%
compound=O=C1CCC(=O)N(c2nc3ccccc3[nH]c2=O)N1 quantity_name=Activity result=16.7%
compound=O=C1CC(=O)N(c2nc3ccccc3[nH]c2=O)N1 quantity_name=Activity result=17.5%

Take each entry in turn and give its Activity.
1. C=CCn1c(=O)c(N/N=C/c2ccc(N(C)C)cc2)nc2ccccc21
2. CCOC(=O)Cn1c(=O)c(N/N=C/c2c(OC)cccc2OC)nc2ccccc21

Given back:
["10.1%", "13.5%"]

Take each entry in turn and give its Activity.
1. CC(C)=NNc1nc2ccccc2[nH]c1=O
2. CN1C(=S)NNC12Nc1ccccc1NC2=O (stereo unspecified)
3. CCOC(=O)Cn1c(=O)c(N/N=C/c2ccc(N(C)C)cc2)nc2ccccc21
4. C=CCn1c(=O)c(N/N=C/c2c(OC)cccc2OC)nc2ccccc21
5. Oc1nc2ccccc2n2c(O)nnc12
6. NNc1nc2ccccc2[nH]c1=O
7. CN(C)c1ccc(/C=N/Nc2nc3ccccc3[nH]c2=O)cc1
8. Oc1nc2ccccc2nc1O

Given back:
13.2%
18.7%
12.7%
10.8%
15.6%
14.9%
13.9%
14.2%

Take each entry in turn and give its Activity.
1. O=c1[nH]c2ccccc2n2c(=O)c(O)nnc12
2. CC1(C)CC[C@]2(C(=O)O)CC[C@]3(C)C(=CC[C@@H]4[C@@]5(C)CC[C@H](O)C(C)(C)[C@@H]5CC[C@]43C)[C@@H]2C1 [OLEANOLIC_ACID]
3. O=C1CN2C(=NN1)C(=O)Nc1ccccc12
4. O=C(c1ccccc1)N1C(=S)NNC12Nc1ccccc1NC2=O (stereo unspecified)

Given back:
["14.2%", "12.7%", "13.6%", "19.1%"]

Asked: Form field: reported Activity of `N=c1c(O)nnc2c(=O)[nH]c3ccccc3n12`
Given back: 15%
